testedTarget: ~100 representative kinases (Homo sapiens, UniProt Q96GD4)
Construct: Recombinant protein kinase domains with a concentration of 2 μM
Sequence (Q96GD4 whole entry, the tested form may be a part): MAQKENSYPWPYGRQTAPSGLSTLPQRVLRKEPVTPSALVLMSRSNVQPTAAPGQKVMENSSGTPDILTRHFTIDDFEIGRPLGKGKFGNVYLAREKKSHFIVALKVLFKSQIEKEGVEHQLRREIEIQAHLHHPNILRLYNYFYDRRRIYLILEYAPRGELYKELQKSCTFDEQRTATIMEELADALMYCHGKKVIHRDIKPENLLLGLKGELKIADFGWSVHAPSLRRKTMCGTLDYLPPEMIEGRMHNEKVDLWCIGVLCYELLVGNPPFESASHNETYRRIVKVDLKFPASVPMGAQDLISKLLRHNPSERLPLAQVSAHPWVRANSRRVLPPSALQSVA
procedureSummary: DSF 100 kinase selectivity screen;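 further: compound tested at 20 µM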
Assay type: binding
conditionDescription: Protein AURKB; average of three replicates
Below: a set of entries, each annotated with reported dTm.
readout: dTm (K)

molecule=Cc1ccc(-n2nc(C(C)(C)C)cc2NC(=O)Nc2cccc(-c3c[nH]c4nc(Cl)nc(N5CCOCC5)c34)c2)cc1 readout=dTm result=-0.56
molecule="Cc1ccc(C(=O)Nc2ccc(CN3CCN(C)CC3)c(C(F)(F)F)c2)cc1C#Cc1cnc2cccnn12 [Ponatinib, reference compound]" readout=dTm result=0.49
molecule=C[C@@H]1CN(c2cc(-c3n[nH]c4ccc(OC5(C)CC5)cc34)ncn2)C[C@H](C)O1 readout=dTm result=-0.83
molecule=O=C(Nc1cccc(-c2c[nH]c3ncnc(N4CCOCC4)c23)c1)C1(C(=O)Nc2cccc3c2CCC3)CC1 readout=dTm result=-0.43
molecule=O=C(Nc1cccc(-c2c[nH]c3ncnc(N4CCOCC4)c23)c1)C1(C(=O)Nc2ccc(F)c(Br)c2F)CC1 readout=dTm result=0.97
molecule=Cc1ccc(C(=O)Nc2ccc(CN3CCN(C)CC3)c(C(F)(F)F)c2)cc1C#Cc1c[nH]c2ncnc(N3CCOCC3)c12 readout=dTm result=1.01
molecule=O=C(Nc1cccc(-c2c[nH]c3ncnc(N4CCOCC4)c23)c1)C1(C(=O)Nc2cc(Br)c(F)cc2F)CC1 readout=dTm result=-2.86
molecule=COc1cc(S(C)(=O)=O)ccc1Nc1nc(N(C)C)c2c(Cl)c[nH]c2n1 readout=dTm result=-0.0653
molecule=CCSc1nc(NC)c2c(-c3cccc(NC(=O)Nc4cc(C(C)(C)C)nn4-c4ccc(C)cc4)c3)c[nH]c2n1 readout=dTm result=0.28
molecule=Cn1cc(-c2c[nH]c3ncnc(N4CCOCC4)c23)cc1C#N readout=dTm result=2.36
molecule=COc1cc(C(=O)N2CCOCC2)c(F)cc1Nc1nc(N(C)C)c2c(Cl)c[nH]c2n1 readout=dTm result=1.54
molecule="CNC(=O)c1cc(Oc2ccc(NC(=O)Nc3cc(C(C)(C)C)nn3-c3ccc4ncccc4c3)c(F)c2)ccn1 [Rebastinib, reference compound]" readout=dTm result=1.16
molecule=CC(C)(C)c1cccc(NC(=O)C2(C(=O)Nc3cccc(-c4c[nH]c5ncnc(N6CCOCC6)c45)c3)CC2)c1 readout=dTm result=1.96
molecule=CC(=O)N1CCN(c2nc(Cl)nc3[nH]cc(-c4cccc(NC(=O)Nc5cc(C(C)(C)C)nn5-c5ccc(C)cc5)c4)c23)CC1 readout=dTm result=-1.00
molecule="Cc1ccc(C(=O)Nc2ccc(CN3CCN(C)CC3)c(C(F)(F)F)c2)cc1C#Cc1cnc2[nH]ncc2c1 [GZD-824, reference compound]" readout=dTm result=1.02
molecule=O=C(Nc1cc(F)cc(Br)c1)C1(C(=O)Nc2cccc(-c3c[nH]c4ncnc(N5CCOCC5)c34)c2)CC1 readout=dTm result=2.17
molecule=Cc1ccc(-n2nc(C(C)(C)C)cc2NC(=O)Nc2cccc(-c3c[nH]c4ncnc(N5CCOCC5)c34)c2)cc1 readout=dTm result=3.15
molecule=Cc1cc(NC(=O)C2(C(=O)Nc3ccc(F)cc3)CC2)cc(-c2c[nH]c3ncnc(N4CCOCC4)c23)c1 readout=dTm result=4.75
molecule=O=C(Nc1cccc(-c2c[nH]c3ncnc(N4CCOCC4)c23)c1)C1(C(=O)Nc2ccc(F)c(Br)c2)CC1 readout=dTm result=5.64
molecule=CCNc1nc(Nc2cc(F)c(C(=O)N3CCOCC3)cc2OC)ncc1C(F)(F)F readout=dTm result=-1.42
